Molecular target: Beta-3 adrenergic receptor (Rattus norvegicus)
Assay: Stimulation of GDP binding against beta-3 adrenergic receptor in brown adipose tissue (BAT) mitochondria of rats after peroral administration (Dose necessary to produce 50% of the isoprenaline effect).
Value Type: GDP ED50 (mg/kg)

O=C(COc1ccc(OCCNCC(O)COc2ccccc2)cc1)NCc1cccs1 (centres undefined) | 0.69
CCCCNC(=O)COc1ccc(OCCNCC(O)COc2ccccc2)cc1 (centres undefined) | 1.5
O=C(COc1ccc(OCCNCC(O)COc2ccccc2)cc1)N1Cc2ccccc2C1 (centres undefined) | 1.3

a = O=C(COc1ccc(OCCNCC(O)COc2ccccc2)cc1)NCCOc1ccccc1 (centres undefined)
b = NC(=O)CNC(=O)COc1ccc(OCCNCC(O)COc2ccccc2)cc1 (centres undefined)
c = CC(C)NC(=O)COc1ccc(OCCNCC(O)COc2ccccc2)cc1 (centres undefined)
d = CCC(C)NC(=O)COc1ccc(OCCNCC(O)COc2ccccc2)cc1 (centres undefined)
Task for the reader: rank each entry by its GDP ED50, from the minimum upward. List the labels according to the requested ordering. c, a, b, d

P = C=CCNC(=O)COc1ccc(OCCNCC(O)COc2ccccc2)cc1 (centres undefined)
Q = COCCNC(=O)COc1ccc(OCCNC[C@H](O)COc2ccccc2)cc1
Lab note: record which item had the higher GDP ED50, P or Q . State your choice using its label. P
(P: 0.64 mg/kg, Q: 0.34 mg/kg)
